# fold change of affinity per entry
system.name: T1, Human CD137 ECD (human)
T1 construct: entry includes C-terminal His-tag and biotin acceptor peptide; also called human CD137 extracellular domain; 4-1BB
protocol: Biacore SPR, vs parent H183/L072
recorded.endpoint: fold change of affinity

- binder: "H183/L072 VL M27eV (antibody, name in Kabat numbering, V domains shown, Dual-Ig) VH: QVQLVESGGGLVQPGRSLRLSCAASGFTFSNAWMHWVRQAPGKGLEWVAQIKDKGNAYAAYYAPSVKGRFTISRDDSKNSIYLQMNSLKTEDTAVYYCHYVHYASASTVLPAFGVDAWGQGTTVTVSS VL: DIVMTQSPLSLPVTPGEPASISCQASQELVHVNRNTYLHWYQQKPGQAPRLLIYKVSNRFPGVPDRFSGSGSGTDFTLKISRVEAEDVGVYYCAQGTSVPFTFGQGTKLEIK"
  recorded.endpoint: "fold change of affinity"
  reported.value: "0.9 fold"
- binder: "H183/L072 VL F55L (antibody, name in Kabat numbering, V domains shown, Dual-Ig) VH: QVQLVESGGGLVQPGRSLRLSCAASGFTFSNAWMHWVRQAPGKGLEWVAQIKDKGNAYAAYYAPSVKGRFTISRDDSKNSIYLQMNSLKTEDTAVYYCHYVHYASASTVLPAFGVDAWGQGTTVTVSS VL: DIVMTQSPLSLPVTPGEPASISCQASQELVHMNRNTYLHWYQQKPGQAPRLLIYKVSNRLPGVPDRFSGSGSGTDFTLKISRVEAEDVGVYYCAQGTSVPFTFGQGTKLEIK"
  recorded.endpoint: "fold change of affinity"
  reported.value: "0.2 fold"
- binder: "H183/L072 VL N30E (antibody, name in Kabat numbering, V domains shown, Dual-Ig) VH: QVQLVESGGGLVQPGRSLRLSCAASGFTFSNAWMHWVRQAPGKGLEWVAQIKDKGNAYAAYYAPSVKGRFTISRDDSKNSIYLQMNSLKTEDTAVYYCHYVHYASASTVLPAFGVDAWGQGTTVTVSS VL: DIVMTQSPLSLPVTPGEPASISCQASQELVHMNRETYLHWYQQKPGQAPRLLIYKVSNRFPGVPDRFSGSGSGTDFTLKISRVEAEDVGVYYCAQGTSVPFTFGQGTKLEIK"
  recorded.endpoint: "fold change of affinity"
  reported.value: "0.1 fold"
